EXPERIMENTAL SYSTEM: Protein kinase C epsilon type (Homo sapiens)
RECORDED CONDITIONS: at 1 µM
Reported residual activity values for the following compounds.
// units = %; emit number, no label

Recorded residual activity, per entry:
[[record]]
chemical_structure = "N#Cc1cnc2cnc(NCc3cccnc3)cc2c1Nc1ccc(F)c(Cl)c1"
experimental_system = "Protein kinase C epsilon type (Homo sapiens)"
observation_type = "residual activity"
units_symbol = "%"
value_reported = 81

[[record]]
chemical_structure = "Cc1nc(-c2ccccc2)c(-c2ccncc2)o1"
experimental_system = "Protein kinase C epsilon type (Homo sapiens)"
observation_type = "residual activity"
units_symbol = "%"
value_reported = 108

[[record]]
chemical_structure = "Oc1ccc(-c2nc(-c3ccc(F)cc3)c(-c3ccncc3)[nH]2)cc1"
experimental_system = "Protein kinase C epsilon type (Homo sapiens)"
observation_type = "residual activity"
units_symbol = "%"
value_reported = 122

[[record]]
chemical_structure = "Oc1c2ccccc2c2c3c(cccc13)N=N2"
experimental_system = "Protein kinase C epsilon type (Homo sapiens)"
observation_type = "residual activity"
units_symbol = "%"
value_reported = 101


So the reported residual activity for O=Nc1c(-c2c(O)[nH]c3ccccc23)[nH]c2ccccc12 , on Protein kinase C epsilon type (Homo sapiens), turned out to be 106

So the reported residual activity for c1ccc(-c2n[nH]c3c2oc2ccccc23)cc1 , on Protein kinase C epsilon type (Homo sapiens), turned out to be 97

So the reported residual activity for O=C1Nc2cc(Br)ccc2/C1=C1/Nc2ccccc2/C1=N\O , on Protein kinase C epsilon type (Homo sapiens), turned out to be 107

So the reported residual activity for Cc1cncc2cccc(S(=O)(=O)N3CCCN(C(=O)CN)C[C@H]3C)c12 , on Protein kinase C epsilon type (Homo sapiens), turned out to be 58

So the reported residual activity for Cc1nc2cc3nc(-c4cccs4)cnc3cc2n1C , on Protein kinase C epsilon type (Homo sapiens), turned out to be 104

So the reported residual activity for CC#CC(=O)Nc1cc2c(Nc3ccc(F)c(Cl)c3)ncnc2cn1 , on Protein kinase C epsilon type (Homo sapiens), turned out to be 90

Origin of the recorded values: ChEMBL document CHEMBL2218924
